// values below are reported pKd
# Target: T1, monovalent hVISTA-ECD (human VISTA extracellular domain with His tail) (human, UniProt Q9H7M9 33-193)
# T1 construct: analyte flowed over captured antibody; also called huVISTA-His
# T1 sequence (Q9H7M9 other isoform, or with tags, fused parts or gaps limits assumed): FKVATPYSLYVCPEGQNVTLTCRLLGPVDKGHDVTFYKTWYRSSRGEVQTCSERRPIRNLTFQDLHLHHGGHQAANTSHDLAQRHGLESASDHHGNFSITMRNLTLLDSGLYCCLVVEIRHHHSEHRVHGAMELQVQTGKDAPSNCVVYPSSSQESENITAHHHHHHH
# Experiment Description: SPR, pH 7.4
Conceptually, pKd converts a concentration in mol/L into minus its log10.

Some binders with recorded pKd:
Binder | Quantitative Readout
P1-065332 (41F11_VH_T28P/Y50W/S55E/A60H/Y100E VK_A64G) (antibody, V domains shown, Kabat positions; also called P1-065332-1) VH: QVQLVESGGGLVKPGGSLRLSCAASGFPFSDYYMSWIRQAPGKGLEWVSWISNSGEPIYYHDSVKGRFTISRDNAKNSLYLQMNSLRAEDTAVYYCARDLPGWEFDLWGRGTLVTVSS VL: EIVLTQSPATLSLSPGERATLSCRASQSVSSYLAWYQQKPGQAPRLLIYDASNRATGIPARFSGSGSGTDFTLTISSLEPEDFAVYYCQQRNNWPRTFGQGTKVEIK | 9.34
P1-064500 (41F11_Vk_Q90DA64G) (antibody, V domains shown, also called P1-064500-1) VH: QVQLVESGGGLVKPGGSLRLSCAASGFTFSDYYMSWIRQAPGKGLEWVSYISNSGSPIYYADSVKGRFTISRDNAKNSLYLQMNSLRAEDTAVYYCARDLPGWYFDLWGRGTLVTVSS VL: EIVLTQSPATLSLSPGERATLSCRASQSVSSYLAWYQQKPGQAPRLLIYDASNRATGIPARFSGSGSGTDFTLTISSLEPEDFAVYYCQDRNNWPRTFGQGTKVEIK | 7.35

Let us move to another entry and its pKd.
Supply reported pKd belonging to this binder: P1-065326 (41F11_VH_D31E/Y50W/S55E/L96E/Y100E VK_A64G) (antibody, V domains shown, Kabat positions; also called P1-065326-1) VH: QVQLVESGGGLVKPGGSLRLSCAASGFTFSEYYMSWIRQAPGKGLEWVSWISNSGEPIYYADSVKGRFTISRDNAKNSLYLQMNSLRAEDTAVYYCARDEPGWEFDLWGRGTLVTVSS VL: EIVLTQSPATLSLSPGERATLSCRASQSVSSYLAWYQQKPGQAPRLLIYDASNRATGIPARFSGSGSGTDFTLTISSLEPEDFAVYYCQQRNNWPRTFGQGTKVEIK
9.01

Where these numbers come from: patent US20220073617A1
